- TESTED SYSTEM: RANK (Homo sapiens)
- Construct: extracellular domain
- Sequence (Q9Y6Q6 30-212 limits assumed): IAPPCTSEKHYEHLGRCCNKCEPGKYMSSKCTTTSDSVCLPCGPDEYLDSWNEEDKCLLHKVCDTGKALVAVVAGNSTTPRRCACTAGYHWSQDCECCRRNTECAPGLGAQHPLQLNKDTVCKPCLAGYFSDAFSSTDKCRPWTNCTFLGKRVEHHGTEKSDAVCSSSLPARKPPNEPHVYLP
- ASSAY NAME: SPR kinetics (Biacore S200), RANK amine-coupled on CM5 chip

| SMILES INPUT | Kd / µM |
| --- | --- |
| COc1cccc2c1C[C@@H]1c3c(cc4c(c3-2)OCO4)CCN1C | 3.7 |

###

- TESTED SYSTEM: RANKL (Homo sapiens, UniProt O14788)
- Construct: extracellular domain
- Sequence (O14788 69-317 limits assumed): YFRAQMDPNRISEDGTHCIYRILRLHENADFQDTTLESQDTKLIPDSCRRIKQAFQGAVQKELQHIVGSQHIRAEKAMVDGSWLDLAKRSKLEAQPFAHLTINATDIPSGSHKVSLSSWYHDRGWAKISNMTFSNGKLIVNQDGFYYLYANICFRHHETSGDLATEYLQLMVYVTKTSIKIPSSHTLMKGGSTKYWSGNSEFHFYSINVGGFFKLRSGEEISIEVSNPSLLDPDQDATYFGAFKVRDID
- ASSAY NAME: SPR kinetics (Biacore S200), RANKL amine-coupled on CM5 chip

| SMILES INPUT | Kd, µM |
| --- | --- |
| COc1cccc2c1C[C@@H]1c3c(cc4c(c3-2)OCO4)CCN1C | 76.5 |
